Target: Beta-1 adrenergic receptor (Homo sapiens, UniProt P08588)
Sequence (P08588 whole entry): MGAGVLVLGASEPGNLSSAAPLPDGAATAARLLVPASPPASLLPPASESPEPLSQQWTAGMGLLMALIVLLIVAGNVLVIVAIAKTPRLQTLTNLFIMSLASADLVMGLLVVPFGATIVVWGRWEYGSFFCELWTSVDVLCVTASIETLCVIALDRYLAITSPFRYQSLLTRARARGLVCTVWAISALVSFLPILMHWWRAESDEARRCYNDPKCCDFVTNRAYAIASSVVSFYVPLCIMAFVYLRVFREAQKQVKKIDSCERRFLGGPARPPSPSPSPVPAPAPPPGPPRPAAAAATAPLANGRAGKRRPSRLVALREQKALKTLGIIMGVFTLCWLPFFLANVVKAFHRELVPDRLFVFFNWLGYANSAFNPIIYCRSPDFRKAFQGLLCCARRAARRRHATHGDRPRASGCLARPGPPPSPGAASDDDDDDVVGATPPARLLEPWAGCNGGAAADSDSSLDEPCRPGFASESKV
Assay: Compound was tested for agonist activity against cloned human beta-1 adrenergic receptor
Format: functional
EC50 values for the compounds below.
Write the answer as a number in nM, unit excluded.

smi: O=S(=O)(Nc1ccc(CCNC[C@H](O)COc2ccc(O)cc2)cc1)c1ccc(Cl)cc1
EC50 / nM: 450

Prompt line: Please give the documented EC50 of O=S(=O)(Nc1ccc(CCNC[C@H](O)COc2ccc(O)cc2)cc1)C1CCCCC1
Response line: 1200

Prompt line: Indicate the recorded EC50 value for this compound: O=S(=O)(Nc1ccc(CCNC[C@H](O)COc2ccc(O)cc2)cc1)c1ccc(Br)cc1
Response line: 340

----------
Target: Beta-1 adrenergic receptor (Homo sapiens)
Assay: Compound was tested for agonist activity against cloned human beta-1 adrenergic receptor
Format: functional
measurementName: IC50 (nM)
// units = nM; emit number, no label

Prompt line: Look up and state reported IC50 for COc1ccc(CCCNC[C@H](O)COc2ccc(O)cc2)cc1
Response line: 15

----------
Molecular target: Beta-2 adrenergic receptor (Homo sapiens, UniProt P07550)
Sequence (P07550 whole entry): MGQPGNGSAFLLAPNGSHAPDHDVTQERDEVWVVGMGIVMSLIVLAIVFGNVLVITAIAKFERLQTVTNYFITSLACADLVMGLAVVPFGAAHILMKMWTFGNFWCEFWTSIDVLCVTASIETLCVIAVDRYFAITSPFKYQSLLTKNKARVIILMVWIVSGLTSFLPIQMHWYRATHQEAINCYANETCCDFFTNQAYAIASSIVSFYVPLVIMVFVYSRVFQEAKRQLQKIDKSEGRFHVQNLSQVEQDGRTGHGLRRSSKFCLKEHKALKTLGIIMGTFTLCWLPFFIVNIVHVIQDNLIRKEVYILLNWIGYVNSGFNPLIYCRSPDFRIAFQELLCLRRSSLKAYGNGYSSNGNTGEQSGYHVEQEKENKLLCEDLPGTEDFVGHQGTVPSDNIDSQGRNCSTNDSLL
Assay: Compound was tested for agonist activity against cloned human beta-2 adrenergic receptor
measurementName: EC50 (nM)
Your answer is read as nM, so omit the unit and give the number.

smi: COc1ccc(CC[C@@H](C)NC[C@H](O)COc2ccc(O)cc2)cc1
EC50 (nM): 5

Now for the compound whose EC50 we want.
Prompt line: Determine from records and report EC50 for COc1ccc(CC[C@@H](C)NC[C@@H](O)COc2ccc(O)cc2)cc1
Response line: 30

----------
Molecular target: Beta-1 adrenergic receptor (Homo sapiens, UniProt P08588)
Assay: Compound was tested for binding affinity against cloned human beta-1 adrenergic receptor from CHO cells using [125I]-iodocyanopindolol as radioligand
Assay type: cell-based
measurementName: IC50

Prompt line: Please indicate IC50 recorded for COc1ccc(CC[C@H](C)NC[C@H](O)COc2ccc(O)cc2)cc1
Response line: 10 nM

----------
Biological target: Beta-2 adrenergic receptor (Homo sapiens)
measurementName: pIC50
// scale note: pIC50 = -log10(conc_M); give the bare number

These solved cases illustrate the format of a correct answer.
smi: CCCCCS(=O)(=O)Nc1ccc(CCNC[C@H](O)COc2ccc(O)cc2)cc1
pIC50: 6.60
--
smi: CC(C)S(=O)(=O)Nc1ccc(CCNC[C@H](O)COc2ccc(O)cc2)cc1
pIC50: 7.24
--
smi: Oc1ccc(CCNC[C@H](O)COc2ccc(O)cc2)cc1
pIC50: 6.82
--
smi: CS(=O)(=O)Nc1ccc(CCNC[C@H](O)COc2ccc(O)cc2)cc1
pIC50: 6.66
--
smi: O=S(=O)(Cc1ccccc1)Nc1ccc(CCNC[C@H](O)COc2ccc(O)cc2)cc1
pIC50: 7.68

In the following, a different compound is considered.
Prompt line: // fetch pIC50 for CC(=O)Nc1ccc(CCNC[C@H](O)COc2ccc(O)cc2)cc1 ; system: Beta-2 adrenergic receptor (Homo sapiens)
Response line: 7.96

----------
Target: Beta-1 adrenergic receptor (Homo sapiens)
Test: Tested for binding affinity against cloned human beta-1 adrenergic receptor from CHO cells using [125I]iodocyanopindolol as the radioligand.
Assay type: cell-based
measurementName: pIC50
Reminder that pIC50 means the negative base-10 logarithm of the concentration expressed in mol/L.

smi: O=S(=O)(Nc1ccc(CCNC[C@H](O)COc2ccc(O)cc2)cc1)c1ccc(Cl)cc1
numericResult: 6.00
//
smi: Cc1ccc(S(=O)(=O)Nc2ccc(CCNC[C@H](O)COc3ccc(O)cc3)cc2)cc1
numericResult: 6.82
//
smi: COc1ccc(S(=O)(=O)Nc2ccc(CCNC[C@H](O)COc3ccc(O)cc3)cc2)cc1
numericResult: 6.85
//
smi: O=S(=O)(Nc1ccc(CCNC[C@H](O)COc2ccc(O)cc2)cc1)c1ccc2ccccc2c1
numericResult: 5.05
//
smi: O=S(=O)(Nc1ccc(CCNC[C@H](O)COc2ccc(O)cc2)cc1)c1cccc(Cl)c1
numericResult: 6.00

Turning now to a further compound:
Prompt line: State the measured pIC50 (Beta-1 adrenergic receptor (Homo sapiens)) of O=S(=O)(Nc1ccc(CCNC[C@H](O)COc2ccc(O)cc2)cc1)c1cnc2ccccc2c1
Response line: 6.30

----------
Target: Beta-3 adrenergic receptor (Homo sapiens, UniProt P13945)
Sequence (P13945 whole entry): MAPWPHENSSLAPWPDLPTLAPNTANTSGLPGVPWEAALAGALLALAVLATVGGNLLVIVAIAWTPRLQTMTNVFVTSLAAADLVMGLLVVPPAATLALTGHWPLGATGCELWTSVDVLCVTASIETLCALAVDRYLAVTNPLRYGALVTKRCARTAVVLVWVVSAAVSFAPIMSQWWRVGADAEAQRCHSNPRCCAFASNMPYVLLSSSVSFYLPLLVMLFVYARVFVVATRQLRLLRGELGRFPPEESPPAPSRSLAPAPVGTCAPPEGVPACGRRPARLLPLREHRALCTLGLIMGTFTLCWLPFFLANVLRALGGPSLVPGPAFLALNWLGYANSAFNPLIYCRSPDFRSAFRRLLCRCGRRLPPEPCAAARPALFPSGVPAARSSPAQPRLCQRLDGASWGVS
Test: Agonist activity against cloned human beta-3 adrenergic receptor
measurementName: pEC50
# pEC50 is unitless: minus log10 of the molar concentration; print number only

Examples with answers:
smi: CCCS(=O)(=O)Nc1ccc(CCNC[C@H](O)COc2ccc(O)cc2)cc1
measurementTarget: Beta-3 adrenergic receptor (Homo sapiens, UniProt P13945)
pEC50: 7.22

smi: O=S(=O)(Nc1ccc(CCNC[C@H](O)COc2ccc(O)cc2)cc1)c1ccc(Br)cc1
measurementTarget: Beta-3 adrenergic receptor (Homo sapiens, UniProt P13945)
pEC50: 9.11

smi: CS(=O)(=O)Nc1ccc(CCNC[C@H](O)COc2ccc(O)cc2)cc1
measurementTarget: Beta-3 adrenergic receptor (Homo sapiens, UniProt P13945)
pEC50: 6.96

smi: O=S(=O)(CCCc1ccccc1)Nc1ccc(CCNC[C@H](O)COc2ccc(O)cc2)cc1
measurementTarget: Beta-3 adrenergic receptor (Homo sapiens, UniProt P13945)
pEC50: 7.04

Prompt line: Identify the reported pEC50 for the following entry. COc1ccc(C[C@H](C)NC[C@H](O)COc2ccc(O)cc2)cc1
Response line: 6.00

----------
Biological target: Beta-1 adrenergic receptor (Homo sapiens, UniProt P08588)
Test: biochemical
Below: a set of entries, each annotated with reported pIC50.
As a rule, pIC50 stands for the negative log10 of the concentration, concentration in M.

smi: O=S(=O)(Nc1ccc(CCNC[C@H](O)COc2ccc(O)cc2)cc1)c1ccc(Br)cc1
numericResult: 6.29
//
smi: CS(=O)(=O)Nc1ccc(CCNC[C@H](O)COc2ccc(O)cc2)cc1
numericResult: 6.08
//
smi: O=S(=O)(CCCc1ccccc1)Nc1ccc(CCNC[C@H](O)COc2ccc(O)cc2)cc1
numericResult: 6.00
//
smi: C[C@@H](CCc1ccc(O)cc1)NC[C@H](O)COc1ccc(O)cc1
numericResult: 7.82

Now, please, on to the next compound.
Prompt line: Give reported pIC50 value for CC(=O)Nc1ccc(CCNC[C@H](O)COc2ccc(O)cc2)cc1
Response line: 7.60

----------
Beta-2 adrenergic receptor (Homo sapiens): recorded pIC50 for assorted compounds
pIC50 field: float, defined as -log10 of concentration (mol/L).

Below, 5 compounds whose answers are already recorded.
smi: O=S(=O)(CCCc1ccccc1)Nc1ccc(CCNC[C@H](O)COc2ccc(O)cc2)cc1
pIC50: 6.89
//
smi: O=S(=O)(Nc1ccc(CCNC[C@H](O)COc2ccc(O)cc2)cc1)c1ccc2ccccc2c1
pIC50: 6.20
//
smi: O=S(=O)(Nc1ccc(CCNC[C@H](O)COc2ccc(O)cc2)cc1)c1cccc(Cl)c1
pIC50: 6.43
//
smi: C[C@@H](Cc1ccc(O)cc1)NC[C@H](O)COc1ccc(O)cc1
pIC50: 7.08
//
smi: O=S(=O)(Nc1ccc(CCNC[C@H](O)COc2ccc(O)cc2)cc1)c1ccc(Cl)cc1
pIC50: 6.55

Note: attention shifts to another entry.
Prompt line: // output pIC50; input Cc1ccc(S(=O)(=O)Nc2ccc(CCNC[C@H](O)COc3ccc(O)cc3)cc2)cc1 ; system Beta-2 adrenergic receptor (Homo sapiens)
Response line: 6.77

----------
Molecular target: Beta-3 adrenergic receptor (Homo sapiens)
Assay: Agonist activity against cloned human beta-3 adrenergic receptor
Reported pEC50 by item:
Scale: negative log10 of molar concentration, which is what pEC50 denotes.

Worked set:
smi: COc1ccc(CC[C@H](C)NC[C@@H](O)COc2ccc(O)cc2)cc1
pEC50: 5.70
//
smi: Oc1ccc(CCNC[C@H](O)COc2ccc(O)cc2)cc1
pEC50: 7.52

Next compound, pEC50 to be filled in.
Prompt line: Check Beta-3 adrenergic receptor (Homo sapiens) data and give pEC50 for O=S(=O)(CCc1ccccc1)Nc1ccc(CCNC[C@H](O)COc2ccc(O)cc2)cc1 .
Response line: 8.23

----------
# pIC50 values compiled below
Molecular target: Beta-2 adrenergic receptor (Homo sapiens, UniProt P07550)
Kindly note that pIC50 refers to -log10 of the concentration in mol/L and answer with the value alone.

Below: 5 compounds and their reported pIC50.
smi: O=C(Nc1ccc(CCNC[C@H](O)COc2ccc(O)cc2)cc1)c1ccccc1
pIC50: 6.64
//
smi: C[C@@H](CCc1ccc(O)cc1)NC[C@H](O)COc1ccc(O)cc1
pIC50: 8.00
//
smi: COc1ccc(S(=O)(=O)Nc2ccc(CCNC[C@H](O)COc3ccc(O)cc3)cc2)cc1
pIC50: 6.72
//
smi: O=S(=O)(CCc1ccccc1)Nc1ccc(CCNC[C@H](O)COc2ccc(O)cc2)cc1
pIC50: 6.92
//
smi: Nc1ccc(CCNC[C@H](O)COc2ccc(O)cc2)cc1
pIC50: 6.30

Continue with the next compound.
Prompt line: Answer with the recorded pIC50 of O=S(=O)(Nc1ccc(CCNC[C@H](O)COc2ccc(O)cc2)cc1)c1cnc2ccccc2c1 only.
Response line: 6.62
